# assay.name: Phase solubility diagram
# setup.conditions: container SBE-β-CD; 20 mM sodium phosphate buffered D2O, pD 7.4, rt
Items are presented alongside their recorded Initial slope of the PSD.

Sample records with Initial slope of the PSD:
C(=C\c1ccccc1)/CN1CCN(C(c2ccccc2)c2ccccc2)CC1
0.008
C[C@@H](c1ncncc1F)[C@](O)(Cn1cncn1)c1ccc(F)cc1F
0.53
CCCCc1oc2ccccc2c1C(=O)c1cc(I)c(OCCN(CC)CC)c(I)c1
0.60
CC[C@@]1(O)C(=O)OCc2c1cc1n(c2=O)Cc2cc3ccccc3nc2-1
0
N[C@@H](Cc1ccc(N(CCCl)CCCl)cc1)C(=O)O
0.50
O=C1CCc2ccc(OCCCCN3CCN(c4cccc(Cl)c4Cl)CC3)cc2N1
0.048

The value of Initial slope of the PSD measured for the molecule C[C@]12CC[C@@H]3c4ccc(O)cc4CC[C@H]3[C@@H]1CC[C@@H]2O turned out to be 0.59

###

# assay.name: Phase solubility diagram
# setup.conditions: container M2C2; 20 mM sodium phosphate buffered D2O, pD 7.4, rt
Label 1 (yes) for high-side Initial slope of the PSD (at or above 0.3) and 0 (no) for low-side Initial slope of the PSD (below it).

C(=C\c1ccccc1)/CN1CCN(C(c2ccccc2)c2ccccc2)CC1
0 (no)
O=C1CCc2ccc(OCCCCN3CCN(c4cccc(Cl)c4Cl)CC3)cc2N1
0 (no)
C[C@]12CC[C@@H]3c4ccc(O)cc4CC[C@H]3[C@@H]1CC[C@@H]2O
1 (yes)
CCCSc1ccc2nc(NC(=O)OC)[nH]c2c1
0 (no)
N[C@@H](Cc1ccc(N(CCCl)CCCl)cc1)C(=O)O
1 (yes)
COc1ccc2c(c1)c(CC(=O)O)c(C)n2C(=O)c1ccc(Cl)cc1
0 (no)
CCCCc1oc2ccccc2c1C(=O)c1cc(I)c(OCCN(CC)CC)c(I)c1
1 (yes)
O=C(NC1=CC(=O)[C@H]2O[C@H]2[C@H]1O)c1cc2ccccc2[nH]c1=O
1 (yes)
C[C@@H](c1ncncc1F)[C@](O)(Cn1cncn1)c1ccc(F)cc1F
1 (yes)
CC[C@@]1(O)C(=O)OCc2c1cc1n(c2=O)Cc2cc3ccccc3nc2-1
1 (yes)

Decide: Initial slope of the PSD of COc1cc2c(cc1O)CC[C@@H]1[C@@H]2CC[C@]2(C)[C@@H](O)CC[C@@H]12 >= 0.3?
1 (yes)

Determine whether measured Initial slope of the PSD meets or exceeds 0.3 for Cc1c(Cl)cccc1Nc1ccccc1C(=O)O
0 (no)

###

# assay.name: Phase solubility diagram
# setup.conditions: container M2C2; from PSD slope and S0 (equation 1)
Categorized via Ka of container•drug complex: c1 (below 20000 M⁻¹), c2 (20000 M⁻¹ to below 70000 M⁻¹), c3 (70000 M⁻¹ or more)

Reference set (5 entries):
CCCSc1ccc2nc(NC(=O)OC)[nH]c2c1 [Albendazole]
c1
COc1ccc2c(c1)c(CC(=O)O)c(C)n2C(=O)c1ccc(Cl)cc1 [Indomethacin]
c2
C[C@@H](c1ncncc1F)[C@](O)(Cn1cncn1)c1ccc(F)cc1F [Voriconazole]
c3
CCCCc1oc2ccccc2c1C(=O)c1cc(I)c(OCCN(CC)CC)c(I)c1 [Amiodarone]
c2
CC[C@@]1(O)C(=O)OCc2c1cc1n(c2=O)Cc2cc3ccccc3nc2-1 [Camptothecin]
c1

Hi there! Could you help me figure out the category for C[C@]12CC[C@@H]3c4ccc(O)cc4CC[C@H]3[C@@H]1CC[C@@H]2O [Estradiol] please?
c3

Sort into band: Cc1c(Cl)cccc1Nc1ccccc1C(=O)O [Tolfenamic acid]
c2

Any idea which band C(=C\c1ccccc1)/CN1CCN(C(c2ccccc2)c2ccccc2)CC1 [Cinnarizine] is in?
c2

Class (by measured Ka of container•drug complex) for O=C(NC1=CC(=O)[C@H]2O[C@H]2[C@H]1O)c1cc2ccccc2[nH]c1=O [PBS-1086]
c3

Which category does the recorded Ka of container•drug complex put O=C1CCc2ccc(OCCCCN3CCN(c4cccc(Cl)c4Cl)CC3)cc2N1 [Aripiprazole] in?
c1
